target: PKCα (Mus musculus, UniProt P20444); assay: Competition with [3H]PDBU binding to PKCα; conditions: Library 2; pure sample = E-isomer; relative to unresolved library E/Z mixture
READOUT: Ratio Ki crude/Ki pure

COMPOUND	EXPERIMENTAL VALUE
CC(C)(C)C(=O)OCC1(CO)C/C(=C\c2ccc(F)c(Cl)c2)C(=O)O1 (centres unmarked)	1.8
CCC(C(=O)OCC1(CO)C/C(=C\c2ccc(-c3ccc(C(F)(F)F)cc3)cc2)C(=O)O1)c1ccccc1 (centres unmarked)	5.8
CCCC(CCC)C(=O)OCC1(CO)C/C(=C\c2ccc(F)c(Br)c2)C(=O)O1 (centres unmarked)	3.0
CCCC(CCC)C(=O)OCC1(CO)C/C(=C\c2ccc(F)c(Cl)c2)C(=O)O1 (centres unmarked)	3.8
CCCC(CCC)C(=O)OCC1(CO)C/C(=C\c2ccc(F)cc2)C(=O)O1 (centres unmarked)	3.0
CCCCC(CC)C(=O)OCC1(CO)C/C(=C\c2ccc(Cl)cc2)C(=O)O1 (centres unmarked)	4.3
CCCC(CCC)C(=O)OCC1(CO)C/C(=C\c2ccc(C(F)(F)F)cc2)C(=O)O1 (centres unmarked)	5.6
CCCCC(CC)C(=O)OCC1(CO)C/C(=C\c2ccc(F)c(Br)c2)C(=O)O1 (centres unmarked)	2.9
